target: Anti-CD28 Fab (SEQ ID NOs: 696, 697); experiment: phage ELISA; clonal phage on biotinylated anti-CD28 Fab captured on neutravidin, anti-M13 HRP detection
Sequence (VH, as listed by the source, chain 1 of 2): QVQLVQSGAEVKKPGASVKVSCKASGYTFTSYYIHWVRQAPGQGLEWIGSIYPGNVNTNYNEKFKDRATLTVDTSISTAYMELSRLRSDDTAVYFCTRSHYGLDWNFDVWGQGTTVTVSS
Sequence (VL, as listed by the source, chain 2 of 2): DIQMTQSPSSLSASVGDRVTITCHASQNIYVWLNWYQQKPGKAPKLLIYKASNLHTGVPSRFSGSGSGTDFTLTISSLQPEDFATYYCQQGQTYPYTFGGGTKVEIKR
measure name: Phage binding ELISA, Anti-CD28 Fab signal
Answers are plain numbers.

For orientation, consider the following solved cases.
Recorded Phage binding ELISA, Anti-CD28 Fab signal of YCDGHLGVYMAKCL [Phage-822 (Peptide-87 library peptide, SEQ ID NO: 1138)] , please.
1.79

Repeat for the following binder: YCQGHSAEYMMKCL [Phage-814 (Peptide-87 library peptide, SEQ ID NO: 1130)]
1.81

Repeat for the following binder: YCDGHKAEYMEKCL [Phage-816 (Peptide-87 library peptide, SEQ ID NO: 1132)]
1.81

Repeat for the following binder: YCDGHTREYIDKCL [Phage-818 (Peptide-87 library peptide, SEQ ID NO: 1134)]
1.8

Repeat for the following binder: YCDGHSPEYIAKCL [Phage-824 (Peptide-87 library peptide, SEQ ID NO: 1140)]
1.79

I'm hoping you can list Phage binding ELISA, Anti-CD28 Fab signal for every binder here, please.
1. YCAGHLPMYMAKCL [Phage-817 (Peptide-87 library peptide, SEQ ID NO: 1133)]
2. YCDGHTSEYITKCL [Phage-823 (Peptide-87 library peptide, SEQ ID NO: 1139)]
3. YCVGHAPEFMAKCL [Phage-819 (Peptide-87 library peptide, SEQ ID NO: 1135)]
4. YCAGHLPQYMNKCL [Phage-815 (Peptide-87 library peptide, SEQ ID NO: 1131)]
5. YCAGHAEQYMAKCL [Phage-820 (Peptide-87 library peptide, SEQ ID NO: 1136)]

1: 1.8; 2: 1.79; 3: 1.8; 4: 1.81; 5: 1.8

I'm hoping you can list Phage binding ELISA, Anti-CD28 Fab signal for every binder here, please.
1. YCDGHAPMYMAKCL [Phage-826 (Peptide-87 library peptide, SEQ ID NO: 1142)]
2. YCDGHLSEYMFKCL [Phage-821 (Peptide-87 library peptide, SEQ ID NO: 1137)]
3. YCDGHLAEYMVKCL [Phage-825 (Peptide-87 library peptide, SEQ ID NO: 1141)]

1. 1.79
2. 1.79
3. 1.79

Values from patent US20260242478A1
